meta.source: patent US9758485B2

Test: logP determination by HPLC on a reversed-phase column (C18), EEC Directive 79/831 Annex V.A8
Format: physicochemical
Settings: HPLC-MS method a), Table I-T3
Measured logP^a) accompanies every entry in the list below.
Please reply with the value in numeric form only.

compound: Cc1cc(C(F)(C(F)(F)F)C(F)(F)F)cc(C)c1-n1cc(-c2cc(C(=O)NC3CC3)c(Cl)cc2F)cn1 [I-T3-14]
logP^a): 4.5

compound: Cc1cc(C(F)(C(F)(F)F)C(F)(F)F)cc(C)c1-n1cc(-c2cc(C(=O)NC3CC3)cc(C(F)(F)F)c2)cn1 [I-T3-15]
logP^a): 4.9

compound: N#CC1(NC(=O)c2cc(-c3cnn(-c4c(Cl)cc(C(F)(C(F)(F)F)C(F)(F)F)cc4C(F)(F)F)c3)ccc2Cl)CC1 [I-T3-57]
logP^a): 4.3

Now turn to the next compound.
Tell me the measured logP^a) of CCc1cc(C(F)(C(F)(F)F)C(F)(F)F)cc(C)c1-n1cc(-c2cccc(C(=O)NC3CC3)c2F)cn1 [I-T3-70] , please. 4.7
